Source: PubChem BioAssay (NCATS)

Assay: Cell Viability - LYMP2-017 (AID 972);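 further: cells exposed to compound for 24 hours at 37 °C; nearly all actives have a fitted effect of over 55% in size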
Settings: LYMP2-017 lymphoblastoid cell viability; series mostly up to 92.2 µM
Excerpt: NIH Chemical Genomics Center [NCGC] NIH Molecular Libraries Screening Centers Network [MLSCN] National Institutes of Environmental Health Sciences [NIEHS] National Toxicology Program [NTP] We have developed a 1536-well cell-based assay for quantitative high throughput screening (qHTS) against a number of cell lines to determine in vitro cytotoxicity of small molecules. […] 8. Detection; Luminescence; Viewlux plate reader […]
Records with an inconclusive call do not appear. Active and inactive are the calls of the source. The call rests on the fitted dose curve; in most records, active means well fitted cell-killing curve with a large enough effect; inconclusive means small, poorly fitted or top-dose-only effect; inactive means flat fitted curve, though single readings scatter.
Your answer must be one of the following: 1 (active), 0 (inactive)

For COC1=CC(=O)C[C@@H](C)[C@]12Oc1c(Cl)c(OC)cc(OC)c1C2=O , which call appears in the assay record?
0

For CC(=O)O[C@]1(C(C)=O)CC[C@H]2[C@@H]3C[C@H](C)C4=CC(=O)CC[C@]4(C)[C@H]3CC[C@@]21C , which call appears in the assay record?
1

For NC(=NCCCCCCN=C(N)/N=C(\N)Nc1ccc(Cl)cc1)/N=C(\N)Nc1ccc(Cl)cc1 , which call appears in the assay record?
1

For COc1cccc2c1C(=O)c1c(O)c3c(c(O)c1C2=O)C[C@@](O)(C(C)=O)C[C@@H]3O[C@H]1C[C@H](N)[C@H](O)[C@H](C)O1 , which call appears in the assay record?
1

====

Target: Lysine-specific demethylase 5B (Homo sapiens)
Experiment: Optimization screen for KDM5B Histone Demethylases FDH coupled qHTS against the LOPAC library (AID 1347166); further: 0% is about no effect
Settings: KDM5B demethylation, FDH-coupled NADH fluorescence (FDH is formaldehyde dehydrogenase); series mostly up to 57.5 µM
Records with an inconclusive call do not appear. Activity calls are given as the source filed them. Calls follow the shape of the dose curve; as a rule, active = well fitted inhibition curve with a large enough effect; inconclusive = small, poorly fitted or top-dose-only effect; inactive = flat fitted curve, though single readings scatter.
quantity_measured: outcome

INSERT INTO results (smiles, test_system, quantity_measured, result) VALUES
  ('CC1(C)CCC(NC(=O)[C@@H](N)CCC(=O)O)CC1', 'Lysine-specific demethylase 5B (Homo sapiens)', 'outcome', 'inactive'),
  ('COc1cc2c(cc1O)CC[C@@H]1[C@@H]2CC[C@]2(C)[C@@H](O)CC[C@@H]12', 'Lysine-specific demethylase 5B (Homo sapiens)', 'outcome', 'inactive'),
  ('C[C@@H]1C(=O)NC2=Nc3cccc(Cl)c3CN21', 'Lysine-specific demethylase 5B (Homo sapiens)', 'outcome', 'inactive');

====

Assay: qHTS of pediatric cancer cell lines to identify multiple opportunities for drug repurposing: Confirmatory screen for NB1643 cells (AID 1347109); further: nearly all actives have a fitted effect of over 45% in size; further: potency means the concentration at half of the fitted maximal effect
Conditions: NB1643 neuroblastoma cell viability; series mostly up to 45.9 µM
Inconclusive results are not listed. Active and inactive are the calls of the source. Calls follow the shape of the dose curve; as a rule, active = well fitted cell-killing curve with a large enough effect; inconclusive = small, poorly fitted or top-dose-only effect, or effect the other way; inactive = no such curve, though single readings can be large or run the other way.
quantity_measured: Potency

Guide cases for Potency, answers given:
INSERT INTO assay_data (compound, result) VALUES
  ('CC1(C)O[C@@H]2C[C@H]3[C@@H]4C[C@H](F)C5=CC(=O)CC[C@]5(C)[C@H]4[C@@H](O)C[C@]3(C)[C@]2(C(=O)CO)O1', 'inactive'),
  ('CCCC(=O)O[C@]1(C(=O)CO)CC[C@H]2[C@@H]3CCC4=CC(=O)CC[C@]4(C)[C@H]3[C@@H](O)C[C@@]21C', 'inactive'),
  ('CCCCC(CC)CN=C(N)NC(N)=NCCCCCCN=C(N)NC(N)=NCC(CC)CCCC (configuration not stated)', '5.22 µM (active)'),
  ('CC(=O)OCC(=O)[C@@]1(O)[C@H](C)C[C@H]2[C@@H]3CCC4=CC(=O)C=C[C@]4(C)[C@@]3(F)[C@@H](O)C[C@@]21C', '20.8 µM (active)'),
  ('CC1(C)O[C@@H]2C[C@H]3[C@@H]4CCC5=CC(=O)CC[C@]5(C)[C@@]4(F)[C@@H](O)C[C@]3(C)[C@]2(C(=O)CCl)O1', 'inactive'),
  ('CC(=O)Oc1ccc(C(c2ccc(OC(C)=O)cc2)c2ccccn2)cc1', 'inactive');

Given CC(=O)OCC(=O)[C@@]12N=C(C)O[C@@H]1C[C@H]1[C@@H]3CCC4=CC(=O)C=C[C@]4(C)[C@H]3[C@@H](O)C[C@@]12C , state its recorded Potency.
2.33 µM (active)

====

Can you tell me activity change, negative = inhibition for the items I'm about to list?
Experiment: NFAT Signaling Pathway (AID 444);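 further: carbachol stimulus at about its EC50 of 1 µM final; on the % scale 0 is the no-effect control and ±100 the full control effect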
Settings: Jurkat NFAT-bla M1, carbachol, beta-lactamase ratio, 5 h; at 38 µM (top of the series)
Results filed as inconclusive are left out.
Give the value in % but do not write % after it.

Given O=C1CCC(c2ccc(-n3ccnc3)cc2)=NN1 , state its recorded activity change, negative = inhibition.
3.77

Given C[C@@H]1C(=O)NC2=Nc3cccc(Cl)c3CN21 , state its recorded activity change, negative = inhibition.
-0.581

Given Nc1cc(Cl)c(NC2=NCCN2)c(Cl)c1 , state its recorded activity change, negative = inhibition.
-7.69

Given Oc1ccc(O)cc1 , state its recorded activity change, negative = inhibition.
-5.74

Given N[C@@H](Cc1cnc[nH]1)C(=O)O , state its recorded activity change, negative = inhibition.
-0.542

Given Oc1cc(O)c2c(c1)O[C@H](c1ccc(O)c(O)c1)[C@H](O)C2 , state its recorded activity change, negative = inhibition.
-2.11

Given COc1cc(-c2ccc(=O)[nH]n2)ccc1OC(F)F , state its recorded activity change, negative = inhibition.
-7.13

Given O=C(O)c1cc2cc(Cc3cccnc3)ccc2o1 , state its recorded activity change, negative = inhibition.
-0.641

Given C1CCc2nnnn2CC1 , state its recorded activity change, negative = inhibition.
-6.06

Given CN1CCC[C@@H]1c1cccnc1 , state its recorded activity change, negative = inhibition.
-1.61

Given C[N+]1(CCCCC[N+]2(C)CCCC2)CCCC1 , state its recorded activity change, negative = inhibition.
-8.15

====

Assay: Cell Viability - LYMP2-008 (AID 980); further: nearly all actives have a fitted effect of over 60% in size
Details: LYMP2-008 lymphoblastoid cell viability, qHTS; series mostly up to 92.2 µM
Inconclusive results are not listed. Active and inactive are the calls of the source. Calls follow the shape of the dose curve; as a rule, active = well fitted cell-killing curve with a large enough effect; inconclusive = small, poorly fitted or top-dose-only effect; inactive = flat fitted curve, though single readings scatter.
Your answer must be one of the following: true (1) for active, false (0) for inactive

For Oc1c(Cl)cc(Cl)cc1Sc1cc(Cl)cc(Cl)c1O , which call appears in the assay record?
true (1)

For NC(=NCCCCCCN=C(N)/N=C(\N)Nc1ccc(Cl)cc1)/N=C(\N)Nc1ccc(Cl)cc1 , which call appears in the assay record?
true (1)

For O=C(O)CCCCC(=O)O , which call appears in the assay record?
false (0)

For COC1=CC(=O)C[C@@H](C)[C@]12Oc1c(Cl)c(OC)cc(OC)c1C2=O , which call appears in the assay record?
false (0)

For C[C@]12CC[C@@H]3c4ccc(O)cc4CC[C@H]3[C@@H]1CC[C@@H]2O , which call appears in the assay record?
false (0)

For CC(O)C(=O)O (stereo unspecified) , which call appears in the assay record?
false (0)

For CN(C)/N=N/c1nc[nH]c1C(N)=O , which call appears in the assay record?
false (0)

For CC(C)(C)CC(C)(C)c1ccc(OCCOCC[N+](C)(C)Cc2ccccc2)cc1 , which call appears in the assay record?
true (1)

For CC/C(=C(/CC)c1ccc(O)cc1)c1ccc(O)cc1 , which call appears in the assay record?
false (0)

For CCCCCCc1ccc(O)cc1O , which call appears in the assay record?
false (0)

For C=CCc1ccc(O)c(OC)c1 , which call appears in the assay record?
false (0)

====

Test system: CP268
Test: qHTS profiling for inhibitors of Plasmodium falciparum proliferation (AID 504749); further: nearly all actives have a fitted effect of over 60% in size
Conditions: P. falciparum in erythrocytes, SYBR Green DNA, 72 h; series mostly up to 28.7 µM
Records with an inconclusive call do not appear. Activity calls are given as the source filed them. The call rests on the fitted dose curve; in most records, active means well fitted inhibition curve with a large enough effect; inconclusive means small, poorly fitted or top-dose-only effect; inactive means flat fitted curve, though single readings scatter.
Your answer must be one of the following: active, inactive

For COc1cc(NS(C)(=O)=O)ccc1Nc1c2ccccc2nc2ccccc12 , which call appears in the assay record?
active

For CC1=C(C(=O)OC(C)C)C(c2cccc([N+](=O)[O-])c2)C(C(=O)OC2CN(C(c3ccccc3)c3ccccc3)C2)=C(N)N1 (stereo not given) , which call appears in the assay record?
active

For COC(=O)[C@@H]1CC2=CC(=O)CC[C@]2(C)[C@@]23O[C@@H]2C[C@@]2(C)[C@@H](CC[C@@]24CCC(=O)O4)[C@H]13 , which call appears in the assay record?
inactive

For Oc1c(Cl)cc(Cl)cc1Sc1cc(Cl)cc(Cl)c1O , which call appears in the assay record?
inactive

For c1ccc(OCc2ccc(CCCN3CCOCC3)cc2)cc1 , which call appears in the assay record?
inactive

For CCn1cc(C(=O)O)c(=O)c2cnc(N3CCCC3)nc21 , which call appears in the assay record?
inactive

For Cc1c(C(N)=O)cc([N+](=O)[O-])cc1[N+](=O)[O-] , which call appears in the assay record?
inactive

For CCOC(=O)OC(C)OC1=C(C(=O)Nc2ccccn2)N(C)S(=O)(=O)c2ccccc21 (stereo not given) , which call appears in the assay record?
inactive

For C#C[C@]1(O)CC[C@H]2[C@@H]3CCc4cc(OC5CCCC5)ccc4[C@H]3CC[C@@]21C , which call appears in the assay record?
inactive

For CCCCOc1cc(C(=O)NCCN(CC)CC)c2ccccc2n1 , which call appears in the assay record?
inactive

For Cc1c(F)c(N2CCNC(C)C2)cc2c1c(=O)c(C(=O)O)cn2C1CC1 (stereo not given) , which call appears in the assay record?
inactive

For Cc1cc(O)c(C(C)C)cc1Cl , which call appears in the assay record?
inactive

For CC/C(=C(/CC)c1ccc(O)cc1)c1ccc(O)cc1 , which call appears in the assay record?
inactive

For Cc1c(N(C)CS(=O)(=O)O)c(=O)n(-c2ccccc2)n1C , which call appears in the assay record?
inactive

For O=S1(=O)c2cccc3cccc(c23)N1CCCN1CCN(c2ccc(F)cc2)CC1 , which call appears in the assay record?
inactive

For O=C1[C@H]2CCCC[C@H]2C(=O)N1CCCCN1CCN(c2nsc3ccccc23)CC1 , which call appears in the assay record?
inactive

For CCN1CCN(c2cc3c(cc2F)c(=O)c(C(=O)O)cn3C2CC2)CC1 , which call appears in the assay record?
inactive

For O=C(CCN1CCC(c2ccccc2)C1)c1ccc2c(c1)OCCO2 (stereo not given) , which call appears in the assay record?
inactive

For CCCCN1CCCC1C(=O)Nc1c(C)cc(C)cc1C (stereo not given) , which call appears in the assay record?
inactive

For CCOc1ccc2nc3cc(N)ccc3c(N)c2c1 , which call appears in the assay record?
active

For CNCCC=C1c2ccccc2CCc2ccccc21 , which call appears in the assay record?
inactive

For COC1=CC(=O)C[C@@H](C)[C@]12Oc1c(Cl)c(OC)cc(OC)c1C2=O , which call appears in the assay record?
inactive

For CC(C)(CO)[C@@H](O)C(=O)NCCCO , which call appears in the assay record?
inactive

For CCOC(=O)COc1ccc2c(C)c(CCN(CC)CC)c(=O)oc2c1Cl , which call appears in the assay record?
inactive

For COc1ccc(C2C(=O)c3ccccc3C2=O)cc1 , which call appears in the assay record?
inactive

For Cc1c(C)n(Cc2ccccc2)c2ccc(C(=O)OCCN(C)C)cc12 , which call appears in the assay record?
inactive

For COc1cc(-c2ccc(=O)[nH]n2)ccc1OC(F)F , which call appears in the assay record?
inactive

For Oc1ccc(Cl)cc1Sc1cc(Cl)ccc1O , which call appears in the assay record?
inactive

For CC(=O)Oc1ccc(C(=C2CCCCC2)c2ccc(OC(C)=O)cc2)cc1 , which call appears in the assay record?
inactive

For CCCCCCc1ccc(O)cc1O , which call appears in the assay record?
inactive

For O=C1CCC(c2ccc(-n3ccnc3)cc2)=NN1 , which call appears in the assay record?
inactive

For Cc1ccnc(NS(=O)(=O)c2ccc(N)cc2)n1 , which call appears in the assay record?
inactive

For OCc1ccccc1O , which call appears in the assay record?
inactive

For NC(CO)(CO)CO , which call appears in the assay record?
inactive

For Cc1c(C)n(CCN(C)C)c2ccc(C(=O)OCCN(C)C)cc12 , which call appears in the assay record?
inactive

For CCCCCC=CCC=CCCCCCCCC(=O)OCC , which call appears in the assay record?
inactive

For CC1(C)CCC(NC(=O)[C@@H](N)CCC(=O)O)CC1 , which call appears in the assay record?
inactive

For CC(C)(C)CC(C)(C)c1ccc(OCCOCC[N+](C)(C)Cc2ccccc2)cc1 , which call appears in the assay record?
active

For Oc1c(I)cc(Cl)c2cccnc12 , which call appears in the assay record?
inactive

For COCc1c(C(C)C)nc(C(C)C)c(/C=C/[C@@H](O)C[C@@H](O)CC(=O)O)c1-c1ccc(F)cc1 , which call appears in the assay record?
inactive

For CN(C)/N=N/c1nc[nH]c1C(N)=O , which call appears in the assay record?
inactive

For CCCn1c(=O)[nH]c(=O)c2[nH]cnc21 , which call appears in the assay record?
inactive

For Cc1ccc(O)c2ncccc12 , which call appears in the assay record?
inactive

For CCN(CC)C(=O)N1CCN(C)CC1 , which call appears in the assay record?
inactive

For COc1cc2c(cc1OC)C(C(C(=O)N(CCc1ccc(OC)c(OC)c1OC)CCc1ccc(OC)c(OC)c1OC)c1ccccc1)=NCC2 (stereo not given) , which call appears in the assay record?
active
